# System: SIMA (Neuroblastoma)
# test_protocol: combination Emax (second highest fraction inhibited in the dose matrix, 72 h); higher = more inhibition; extreme values may be limits of the assay
value_kind: combination Emax

CCN(CCO)CCCOc1ccc2c(Nc3cc(CC(=O)Nc4cccc(F)c4)[nH]n3)ncnc2c1 [AZD2811] + C=CCn1c(=O)c2cnc(Nc3ccc(N4CCN(C)CC4)cc3)nc2n1-c1cccc(C(C)(C)O)n1 [AZD1775] (first compound max 1 µM, partner max 1 µM): 0.855
Cc1c2c(nn1C)CSCc1cc(n(C)n1)CSc1cc(c3ccccc3c1)OCCCc1c(C(=O)O)n(C)c3c-2c(Cl)ccc13 [AZD5991] + C=CCn1c(=O)c2cnc(Nc3ccc(N4CCN(C)CC4)cc3)nc2n1-c1cccc(C(C)(C)O)n1 [AZD1775] (first compound max 1 µM, partner max 1 µM): 0.973
C[C@@H]1COCCN1c1cc(C2([S@](C)(=N)=O)CC2)nc(-c2ccnc3[nH]ccc23)n1 [AZD6738] + O=C(c1cc(Cc2n[nH]c(=O)c3ccccc23)ccc1F)N1CCN(C(=O)C2CC2)CC1 [Olaparib] (first compound max 10 µM, 7x7, partner max 10 µM): 0.642
Cc1c2c(nn1C)CSCc1cc(n(C)n1)CSc1cc(c3ccccc3c1)OCCCc1c(C(=O)O)n(C)c3c-2c(Cl)ccc13 [AZD5991] + C[C@@H](Nc1cc(F)cc(F)c1)c1cc(C(=O)N(C)C)cc2c(=O)cc(N3CCOCC3)oc12 [AZD8186] (first compound max 1 µM, 7x7, partner max 3 µM): 0.218
Cc1c2c(nn1C)CSCc1cc(n(C)n1)CSc1cc(c3ccccc3c1)OCCCc1c(C(=O)O)n(C)c3c-2c(Cl)ccc13 [AZD5991] + CCN(CCO)CCCOc1ccc2c(Nc3cc(CC(=O)Nc4cccc(F)c4)[nH]n3)ncnc2c1 [AZD2811] (first compound max 1 µM, 7x7, partner max 1 µM): 0.768
COc1cccc2c1C(=O)c1c(O)c3c(c(O)c1C2=O)C[C@@](O)(C(=O)CO)C[C@@H]3O[C@H]1C[C@H](N)[C@H](O)[C@H](C)O1 [Doxorubicin] + Cc1cc2ncnn2cc1Nc1ncc2c(n1)n(C1CCOCC1)c(=O)n2C [AZD7648] (first compound max 1 µM, 7x7, partner max 10 µM): 0.854
C=CCn1c(=O)c2cnc(Nc3ccc(N4CCN(C)CC4)cc3)nc2n1-c1cccc(C(C)(C)O)n1 [AZD1775] + O=C(c1cc(Cc2n[nH]c(=O)c3ccccc23)ccc1F)N1CCN(C(=O)C2CC2)CC1 [Olaparib] (first compound max 1 µM, partner max 10 µM): 0.721

---

# Test system: NCI-H28 (Mesothelioma)
# test_protocol: combination Emax (second highest fraction inhibited in the dose matrix, 72 h); higher = more inhibition; extreme values may be limits of the assay
value_kind: combination Emax

Cn1cnc2c(F)c(Nc3ccc(Br)cc3Cl)c(C(=O)NOCCO)cc21 [Selumetinib] + CC(C)n1c(=O)n(C)c2cnc3cc(F)c(-c4ccc(OCCCN5CCCCC5)nc4)cc3c21 [AZD1390] (first compound max 10 µM, 7x7, partner max 0.3 µM): 0.262
C[C@@H](Oc1cc(-c2cnn(C3CCNCC3)c2)cnc1N)c1c(Cl)ccc(F)c1Cl [Crizotinib] + Cn1cnc2c(F)c(Nc3ccc(Br)cc3Cl)c(C(=O)NOCCO)cc21 [Selumetinib] (first compound max 10 µM, 7x7, partner max 10 µM): 0.438
COc1cccc(OCCCN)c1-c1cc(Nc2cnc(C#N)cn2)n[nH]1 [Prexasertib] + CN(C)CCCOc1ccc(-c2ccc3ncc4c(c3c2)n(C2CCOCC2)c(=O)n4C)cn1 [AZD0156] (first compound max 1 µM, 7x7, partner max 1 µM): 0.626
C[C@@H]1COCCN1c1cc(C2([S@](C)(=N)=O)CC2)nc(-c2ccnc3[nH]ccc23)n1 [AZD6738] + Nc1ccn([C@@H]2O[C@H](CO)[C@@H](O)C2(F)F)c(=O)n1 [Gemcitabine] (first compound max 10 µM, 7x7, partner max 0.3 µM): 0.695
Cc1cc2ncnn2cc1Nc1ncc2c(n1)n(C1CCOCC1)c(=O)n2C [AZD7648] + C[C@@H]1COCCN1C2=NC(=NC(=C2)C3(CC3)[S@](=N)(=O)C)C4=C5C=CNC5=NC=C4 [AZD6738] (first compound max 10 µM, 7x7, partner max 10 µM): 0.538
CN(CCO)CC[C@H](CSc1ccccc1)Nc1ccc(S(=O)(=O)NC(=O)c2ccc(N3CCC([C@@H](O)c4ccccc4-c4ccc(Cl)cc4)CC3)cc2)cc1S(=O)(=O)C(F)(F)F [AZD4320] + Nc1ccn([C@@H]2O[C@H](CO)[C@@H](O)C2(F)F)c(=O)n1 [Gemcitabine] (first compound max 1 µM, 7x7, partner max 0.3 µM): 0.797
CN(CCO)CC[C@H](CSc1ccccc1)Nc1ccc(S(=O)(=O)NC(=O)c2ccc(N3CCC([C@@H](O)c4ccccc4-c4ccc(Cl)cc4)CC3)cc2)cc1S(=O)(=O)C(F)(F)F [AZD4320] + C1CN(CCC1(C(=O)N[C@@H](CCO)C2=CC=C(C=C2)Cl)N)C3=NC=NC4=C3C=CN4 [Capivasertib] (first compound max 1 µM, 7x7, partner max 3 µM): 0.159
CN(CCO)CC[C@H](CSc1ccccc1)Nc1ccc(S(=O)(=O)NC(=O)c2ccc(N3CCC([C@@H](O)c4ccccc4-c4ccc(Cl)cc4)CC3)cc2)cc1S(=O)(=O)C(F)(F)F [AZD4320] + CCN(CCO)CCCOc1ccc2c(Nc3cc(CC(=O)Nc4cccc(F)c4)[nH]n3)ncnc2c1 [AZD2811] (first compound max 1 µM, 7x7, partner max 1 µM): 0.416
Cc1c2c(nn1C)CSCc1cc(n(C)n1)CSc1cc(c3ccccc3c1)OCCCc1c(C(=O)O)n(C)c3c-2c(Cl)ccc13 [AZD5991] + Cn1cnc2c(F)c(Nc3ccc(Br)cc3Cl)c(C(=O)NOCCO)cc21 [Selumetinib] (first compound max 1 µM, 7x7, partner max 3 µM): 0.316
C[C@@H](c1ccc2nccn2c1)n1nnc2ncc(-c3cnn(C)c3)nc21 [Savolitinib] + CC1(C)CCC(CN2CCN(c3ccc(C(=O)NS(=O)(=O)c4ccc(NCC5CCOCC5)c([N+](=O)[O-])c4)c(Oc4cnc5[nH]ccc5c4)c3)CC2)=C(c2ccc(Cl)cc2)C1 [Venetoclax] (first compound max 1 µM, 7x7, partner max 1 µM): 0.181
CC1(C)CCC(CN2CCN(c3ccc(C(=O)NS(=O)(=O)c4ccc(NCC5CCOCC5)c([N+](=O)[O-])c4)c(Oc4cnc5[nH]ccc5c4)c3)CC2)=C(c2ccc(Cl)cc2)C1 [Venetoclax] + CCN(CCO)CCCOc1ccc2c(Nc3cc(CC(=O)Nc4cccc(F)c4)[nH]n3)ncnc2c1 [AZD2811] (first compound max 1 µM, 7x7, partner max 1 µM): 0.255
CC1(C)CCC(CN2CCN(c3ccc(C(=O)NS(=O)(=O)c4ccc(NCC5CCOCC5)c([N+](=O)[O-])c4)c(Oc4cnc5[nH]ccc5c4)c3)CC2)=C(c2ccc(Cl)cc2)C1 [Venetoclax] + Cn1cnc2c(F)c(Nc3ccc(Br)cc3Cl)c(C(=O)NOCCO)cc21 [Selumetinib] (first compound max 1 µM, 7x7, partner max 3 µM): 0.142
COc1nnc2ccc(N3CCC(c4ccc(OCCN5CCN(C)C(=O)[C@H]5C)cc4)CC3)nn12 [AZD5153] + C[C@@H]1COCCN1C2=NC(=NC(=C2)C3(CC3)[S@](=N)(=O)C)C4=C5C=CNC5=NC=C4 [AZD6738] (first compound max 1 µM, 7x7, partner max 10 µM): 0.659

Source listed as the supplement of paper PMC11061612.
